- Test system: SW-620 colon
- methodNotes: NCI-60 one-dose screen, 48 h
- testSettings: 10 µM
The panel holds about 83,000 compounds, 20% with a hit somewhere; the sample as a whole holds those more often. The source made the active and inactive calls. Rule for the calls: active = growth percent below 10; inactive = the rest.
// classify into t (active), f (inactive)

Illustrative cases are given below, each with its answer.
Ask: What did the test return for `CCCCCCCCCCCCCC[n+]1ccc(C)cc1` ?
Result: t

Ask: Now consider `Cn1c([N+](=O)[O-])cnc1C=C1C(=O)c2ccccc2C1=O` .
Result: f

Ask: Now consider `CC(=O)O[C@H]1CC[C@@]2(C)[C@@H](CC[C@@H]3[C@@H]2CC[C@]2(C)C=C(C=O)C[C@@H]32)C1` .
Result: f

New cases:
Ask: What did the test return for `CCOC(=O)Nc1ccc2c(c1)C(=O)N(CC)c1ccccc1O2` ?
Result: f

Ask: Now consider O=C(c1ccccc1)C(Nc1ccccc1)c1ccccc1 (configuration not stated) .
Result: f

Ask: Now consider `CNC(=O)c1cc(Oc2ccc(NC(=O)Nc3ccc(Cl)c(C(C)(C)C)c3)c(F)c2)ccn1` .
Result: f

* * *

Catalogue of compounds with associated growth
- System: LOX IMVI melanoma
- methodNotes: NCI-60 one-dose screen, 48 h (100 = growth as untreated, 0 = no growth, -100 = all killed)
- testSettings: 10 µM
About 83,000 compounds went through this panel and 20% of them were active in at least one assay; those are over-represented in the sample as a whole.
// return numeric value only (unit: %, not printed)

Ask: What growth value was documented for this compound, CCOc1cc(Br)c(C(C)NC(=O)c2cccc(OC)c2)cc1OCC (stereo not drawn) ?
Result: 73.4

Ask: Now consider `COc1ccc(-c2[nH]ncc2-c2cc(OC)c(OC)c(OC)c2)cc1` .
Result: 27.8

Ask: Now consider `Cc1cc(C#Cc2ccccc2)ccc1-n1c(/C=C/c2cc(O)ccc2O)nc2ccccc2c1=O` .
Result: -80.6

Ask: Now consider `c1ccc(CNc2nc(Nc3ccc(-c4nc5ccccc5[nH]4)cc3)c3cn[nH]c3n2)cc1` .
Result: -42.1

Ask: Now consider `Cc1ccc2c(c1)-c1cc(C)nn1-c1ccc(C#N)cc1O2` .
Result: 49.4

Note: attention shifts to another entry.
Ask: What growth value was documented for this compound, `CCc1ccc(-c2nnc(COc3ccc(-c4nc5cc(Cl)c(Cl)cc5[nH]4)cc3OC)o2)cc1` ?
Result: 43.3

* * *

Catalogue of molecules with associated growth
- Test system: SNB-75 CNS
- methodNotes: NCI-60 one-dose screen, 48 h (100 = growth as untreated, 0 = no growth, -100 = all killed)
- testSettings: 10 µM
This is part of a sample that, as a whole, favours compounds with a hit. Of some 83,000 tested, about 20% had one in any assay.
// return numeric value only (unit: %, not printed)

Ask: What growth value was documented for this molecule, `CCOC(=O)/C(C#N)=C(/C)C1CC1` ?
Result: 87.7

Ask: Now consider `Fc1ccc(Nc2ccnc(N3CCN(c4ccnc5cc(Cl)ccc45)CC3)n2)cc1` .
Result: 74.2

Note: attention shifts to another entry.
Ask: What growth value was documented for this molecule, `CCOC(=O)c1c(C)n(-c2ccc(Cl)cc2)c2ccc(OC(=O)/C=C/c3ccccc3)cc12` ?
Result: 66.6
